Test system: 253994-281-T-J1-PDC KRAS-mutant spheroids with HUVEC/MSC, viability;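 also: spheroids exposed to agents for seven days before readout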
Procedure Summary: Anticancer human tumor 253994-281-T-J1-PDC patient-derived colorectal carcinoma cell line growth inhibition [KRAS2]
Conditions: curve of first compound; second compound 1 µM
Recorded Metric: IC50

Prompt: Under 253994-281-T-J1-PDC KRAS-mutant spheroids with HUVEC/MSC, viability: report IC50 of Cn1nccc1Nc1nccc(-c2cc3c(s2)C(C)(C)N(CCN2CCOCC2)C3=O)n1 + CNCc1ccccc1-c1csc(C(C)Nc2nc(C)nc3cc(OC)c(OC)cc23)c1 .
Completion: 0.863 µM

Prompt: Under 253994-281-T-J1-PDC KRAS-mutant spheroids with HUVEC/MSC, viability: report IC50 of O=C(c1cc(Cc2n[nH]c(=O)c3ccccc23)ccc1F)N1CCN(C(=O)C2CC2)CC1 + C=CC(=O)N1CCN(c2nc(=O)n(-c3c(C)ccnc3C(C)C)c3nc(-c4c(O)cccc4F)c(F)cc23)C(C)C1 .
Completion: > 10 µM

Prompt: Under 253994-281-T-J1-PDC KRAS-mutant spheroids with HUVEC/MSC, viability: report IC50 of CC(C)n1nc(-c2ccc3oc(N)nc3c2)c2c(N)ncnc21 + COc1cc2nc(C)nc(NC(C)c3cc(N)cc(C(F)(F)F)c3)c2cc1OC1CCOC1 .
Completion: > 0.1 µM

Data provenance is PubChem BioAssay AID1963874.
